These entries and their values trace back to paper PMC12040169.

- Protocol description: in vitro
- Assay setup: human, hela cells, % viability
Recorded viability at 28.5 h, 10 µM for the following molecules

| Molecule | viability at 28.5 h, 10 µM, % |
| --- | --- |
| Cc1cc(NC(=O)C2CCN(C)CC2)c2ccccc2n1 | 91.1 |
| CC(C)CCCC(=O)n1ccn(CCCOc2ccccc2)c1=O | 101 |
| CCOC(=O)CC(=O)Nc1c(Br)cc(Br)cc1C(=O)O | 95.2 |
| COc1cccc(N2N=C3NNC(N)=C3N2)c1 | 83.7 |
| CN1C(=O)CC2(C1=O)C(=O)N(Cc1ccc3ccccc3n1)c1ccc(Cl)cc12 (stereo not drawn) | 102 |
| O=C(Nc1cccnc1)C1CCN(C(=O)OCc2ccccc2)CC1 | 90.6 |
| Cc1ccc(C2(O)CCN(Cc3cn(C)nc3C)CC2)cc1 | 107 |
| CC(=O)Nc1ccc(-c2cccc(COC3CCN(C(=O)Cc4c[nH]cn4)CC3)c2)cc1 | 103 |
| COCCNC(=O)c1sc2ccccc2c1C1CCN(Cc2ccc3ncccc3c2)C1 (stereo not drawn) | 85.2 |

* * *

- Protocol description: in vitro
- Assay setup: human, hela cells, % viability
Measured property: viability at 28.5 h, 10 µM (%)

| Compound | Measured property | Readout number |
| --- | --- | --- |
| Cc1cccnc1Nc1ccc(C2CCCCN2Cc2ccc3nccnc3c2)cn1 (stereo not shown) [CBK286133] | viability at 28.5 h, 10 µM | 89.8 |
| O=C(CN1C(=O)[C@@H]2CCCN2c2ncccc21)NC(c1ccccc1)c1ccccc1 [CBK286205] | viability at 28.5 h, 10 µM | 121 |
| CC(C)Nc1nccnc1Sc1ccc(N)cc1 [CBK089485] | viability at 28.5 h, 10 µM | 77.1 |
| CCC(C)(C)C1CCc2c(sc(NC(=O)CN3CCOCC3)c2C#N)C1 (stereo not shown) [CBK270048] | viability at 28.5 h, 10 µM | 89.4 |
| O=C(N[C@H]1C[C@H]2C(=O)Nc3ccc(-c4ccsc4)cc3C(=O)N2C1)c1ccccc1 [CBK289361] | viability at 28.5 h, 10 µM | 91 |
| C=CCC1(CC=C)CCN1C(=O)c1sc2ncn(C)c(=O)c2c1C [CBK282637] | viability at 28.5 h, 10 µM | 84.7 |
| CC[C@H](Cn1ncc2ccccc2c1=O)NC(=O)c1cccs1 [CBK284301] | viability at 28.5 h, 10 µM | 96.7 |
| O=C(NC(NCc1ccc2c(c1)OCO2)(C(F)(F)F)C(F)(F)F)c1cccnc1 [CBK074397] | viability at 28.5 h, 10 µM | 78.8 |
| CC(C)Cn1c(=O)c(C(=O)Nc2cccc(Cl)c2)c(O)c2ccccc21 [CBK159967] | viability at 28.5 h, 10 µM | 103 |
| CCOc1ccc(-c2nnn(CC(N)=O)n2)cc1 [CBK068283] | viability at 28.5 h, 10 µM | 110 |
| C#CCN1N=C(c2ccc(OC)cc2)Cn2c(cc3sccc32)C1=O [CBK284209] | viability at 28.5 h, 10 µM | 91.2 |
| Cc1cc(NC(=O)Cc2ccsc2)c2ccccc2n1 [CBK116259] | viability at 28.5 h, 10 µM | 89.4 |
| O=C1CC2(C(=O)N1Cc1ccccc1)C(=O)N(Cc1csc(-c3ccccc3)n1)c1ccccc12 (stereo not shown) [CBK075673] | viability at 28.5 h, 10 µM | 112 |
| CCN(Cc1ccccc1)C(=O)NCc1cccc(C(F)(F)F)c1 [CBK155216] | viability at 28.5 h, 10 µM | 110 |
| COc1cc(CNC(=O)c2cnoc2-c2ccc(Br)cc2)cc(OC)c1OC [CBK154893] | viability at 28.5 h, 10 µM | 110 |
| O=C(COc1ccccc1)Nc1nn(Cc2ccc(S(=O)(=O)N3CCCC3)cc2)c2ccccc12 [CBK061594] | viability at 28.5 h, 10 µM | 58.6 |
| CC(=O)N1CCN(C(=O)Cn2ccc3ccccc32)CC(O)C1 (stereo not shown) [CBK307552] | viability at 28.5 h, 10 µM | 98.1 |
| O=C1NC2(Nc3ccccc31)C(=O)N(Cc1cccc3ccccc13)c1ccccc12 (stereo not shown) [CBK264954] | viability at 28.5 h, 10 µM | 108 |
| Cc1ccc2nc(O)cc(C(=O)OCC(=O)c3cccc([N+](=O)[O-])c3)c2c1 [CBK265115] | viability at 28.5 h, 10 µM | 94.1 |
